Molecular target: AalbOr11 (odorant receptor 11) (Aedes albopictus, UniProt A0ABM1ZVX3)
Construct: with AalbOrco
Sequence (A0ABM1ZVX3 1-420): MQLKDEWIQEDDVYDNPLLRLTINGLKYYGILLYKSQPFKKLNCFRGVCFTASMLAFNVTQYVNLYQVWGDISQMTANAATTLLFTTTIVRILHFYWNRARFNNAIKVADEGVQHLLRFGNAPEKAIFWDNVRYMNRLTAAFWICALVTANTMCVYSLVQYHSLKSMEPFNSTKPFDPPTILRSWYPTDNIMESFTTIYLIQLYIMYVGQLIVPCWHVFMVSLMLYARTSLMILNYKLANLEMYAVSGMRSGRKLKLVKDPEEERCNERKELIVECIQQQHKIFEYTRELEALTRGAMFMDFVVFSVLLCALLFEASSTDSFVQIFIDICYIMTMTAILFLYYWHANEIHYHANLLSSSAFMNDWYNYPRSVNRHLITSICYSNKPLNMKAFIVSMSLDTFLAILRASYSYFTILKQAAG
Sequence (W8NXX6 1-479 partner): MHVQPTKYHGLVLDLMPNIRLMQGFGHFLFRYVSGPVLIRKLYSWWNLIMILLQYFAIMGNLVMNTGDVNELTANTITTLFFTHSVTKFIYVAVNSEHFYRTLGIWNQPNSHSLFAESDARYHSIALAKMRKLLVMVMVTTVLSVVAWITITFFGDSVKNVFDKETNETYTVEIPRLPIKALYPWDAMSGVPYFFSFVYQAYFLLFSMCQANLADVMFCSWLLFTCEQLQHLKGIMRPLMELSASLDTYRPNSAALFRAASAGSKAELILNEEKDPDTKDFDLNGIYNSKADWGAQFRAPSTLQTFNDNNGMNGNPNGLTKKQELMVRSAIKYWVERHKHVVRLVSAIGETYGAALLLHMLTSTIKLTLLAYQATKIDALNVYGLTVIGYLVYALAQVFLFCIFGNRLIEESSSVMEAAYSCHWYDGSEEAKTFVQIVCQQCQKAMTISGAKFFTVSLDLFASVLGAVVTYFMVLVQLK
Experiment: two-electrode voltage clamp in Xenopus oocytes co-expressing AalbOr11/AalbOrco, concentration-response
Measured EC50 accompanies every entry in the list below.
# value in µM; strip the unit string

Ask | If you can, please state the reported EC50 value of CC1(C)C(=O)[C@@]2(C)CC[C@@H]1C2 [(+)-fenchone] .
Reply | 139

Next:
Ask | # get_value(readout='EC50', item= `CCc1ccccc1C` )
Reply | 62.2
